# PROTOCOL_NOTES: Primary qHTS for inhibitors of nuclear receptor binding SET domain protein 2 (NSD2) in an RCH-ACV wild type WT cells (2C) (AID 1645877); also: nearly all actives have a fitted effect of over 70% in size
# TEST_PARAMETERS: RCH-ACV (leukaemia line) NSD2 WT (2C) viability, CellTiter-Glo, 72 h; series mostly up to 44.9 µM
# From the text: Assay Provider: Jonathan D. Licht, MD University of Florida College of Medicine, Gainesville, FL Mutations in epigenetic regulators are common in relapsed pediatric acute lymphoblastic leukemia (ALL). Here, we uncovered the mechanism underlying the relapse of ALL driven by an activating mutation of the NSD2 histone methyltransferase (p.E1099K). […] Correction of this mutation restored glucocorticoid sensitivity. […]
Inconclusive results are not listed. Activity calls are given as the source filed them. Calls follow the shape of the dose curve; as a rule, active = well fitted inhibition curve with a large enough effect; inconclusive = small, poorly fitted or top-dose-only effect; inactive = no such curve, though single readings can be large or run the other way.
Select the matching outcome among active, inactive

// known answers, use as guide
COMPOUND	ANSWER_LABEL
COc1ccc(-c2ccc3c(N4CCOCC4)nc(N4CC(C)OC(C)C4)nc3n2)cc1CO (stereo not drawn)	active
O=C(N/N=C/c1ccc(O)c(O)c1)c1cc2ccccc2cc1O	active
COc1ccc2cc(C(C)C(=O)Oc3ccc(C(N)=S)cc3)ccc2c1 (stereo not drawn)	inactive
C=C1C[C@]23C[C@H]1CC[C@H]2[C@]1(C)CCC[C@@](C)(C(=O)O)[C@H]1[C@@H]3C(=O)O	inactive
CC1(C)CC[C@]2(C(=O)O[C@@H]3O[C@H](CO)[C@@H](O)[C@H](O)[C@H]3O)CC[C@]3(C)C(=CCC4[C@@]5(C)C[C@@H](O)[C@H](O)C(C)(C)C5[C@H](O)C[C@]43C)[C@@H]2[C@@H]1O (stereo partly drawn)	inactive

[in] Answer briefly: the call reported for CC1(C)CCCC2(C)C1C(O)C=C(CO)C2(O)CO (stereo not drawn) in this assay.
[out] inactive

[in] Dear colleague, could you share the recorded outcome for CN(C)c1ccc2c(c1)OC(N)=C(C#N)C2c1cccc(C(F)(F)F)c1 (stereo not drawn) when you have a moment?
[out] active

[in] What did the test return for CC(C)=C/C=C\[C@H](C)[C@H]1CC[C@]2(C)C[C@@H]3C(C)=CC(=O)C3/C(CO)=C\C[C@@H]12 (stereo partly drawn) ?
[out] active

---

# PROTOCOL_NOTES: Primary redox qHTS assay for identification of artifact compounds. (AID 1845223);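 also: 0% = DMSO and 100% = reference compound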
# TEST_PARAMETERS: Amplex Red/HRP redox cycling with DTT, fluorescence; series mostly up to 53.8 µM
Results filed as inconclusive are left out. Calls of active or inactive are those of the source. The call rests on the fitted dose curve; in most records, active means well fitted activation curve with a large enough effect; inconclusive means small, poorly fitted or top-dose-only effect; inactive means flat fitted curve, though single readings scatter. Where a SMILES comes first, the peptide text is derived from it. [ ]: non-standard residue; d: D form. ξ: configuration not given here. ξPhe(βξ-Me) = CC(c1ccccc1)C(N)C(=O)O; GABA = NCCCC(=O)O

COMPOUND	redox activity (% of DA3003)
Cc1cccc(C)c1OCc1cc(C(=O)N2CCC(c3ccncc3)CC2)no1	inactive
CC1NC(=O)CCCNC(=O)C(Cc2c[nH]c3ccccc23)NC(=O)C(C)NC(=O)C(C(C)C)NC(=O)C(C(C)c2ccccc2)NC(=O)C(C(C)C)NC1=O (stereo not drawn) (cyclo([GABA]AV[ξPhe(βξ-Me)]VAW); configuration not given here)	inactive
Cc1cccc(C)c1-n1c(=O)c2cnc(Nc3ccc(N4CCN(C)CC4)cc3)nc2n2c3ccccc3nc12	inactive

---

# Tested on: NIH3T3
# PROTOCOL_NOTES: Cytotoxic Profiling of Annotated Libraries Using Quantitative High-Throughput Screening (AID 1296008); also: % is scaled to controls: 0 for no effect and ±100 for the full control effect; nearly all actives have a fitted effect of over 60% in size
# TEST_PARAMETERS: Five cell lines viability, CellTiter-Glo ATP luminescence, 48-72 h; active compounds read low
Records with an inconclusive call do not appear.
max response values, listed per item
Form entry: value (%) — number only.

Worked examples follow.
COMPOUND	SYSTEM_UNDER_TEST	UNIT_STRING	max response
COc1ncc2cc(C(=O)Nc3cc(C(=O)NCc4cccc(Cl)c4)ccc3Cl)c(=O)[nH]c2n1	NIH3T3	%	-0.237
COc1cc(C(=O)OC[C@@]2(O)CO[C@@H](O[C@H]3[C@H](Oc4ccc(C(=O)O)cc4OC)O[C@H](CO)[C@@H](O)[C@@H]3O)[C@@H]2O)ccc1O	NIH3T3	%	3.57
CC(C)(O)c1ccc2c(c1)C(O)C[C@H]1[C@](C)(C(=O)O)CCC[C@]21C (some centres undefined)	NIH3T3	%	4.86
C=C1C[C@]23C[C@H]1CC[C@H]2[C@]1(C)CCC[C@@](C)(C(=O)O)[C@H]1[C@@H]3C(=O)O	NIH3T3	%	2.88
C/C=C1\[C@H](O[C@@H]2O[C@H](CO)[C@@H](O)[C@H](O)[C@H]2O)OC=C2C(=O)OCCc3ccc(O)c(c3)Oc3ccc(cc3)CCOC(=O)C[C@H]21	NIH3T3	%	-1.53

[in] Could you share what max response was measured for C[C@@H]1O[C@@H](O[C@H]2[C@H](O)[C@@H](C(=O)O)O[C@@H](O[C@H]3CC[C@@]4(C)C(CC[C@]5(C)C4CC=C4C6CC(C)(C)CC[C@]6(C(=O)O)CC[C@]45C)C3(C)C)[C@@H]2O[C@@H]2OC[C@@H](O)[C@H](O)[C@H]2O)[C@H](O)[C@H](O)[C@H]1O (some centres undefined) , tested on NIH3T3?
[out] 0.526

---

# System: NIH3T3
# PROTOCOL_NOTES: Cytotoxic Profiling of Annotated Libraries Using Quantitative High-Throughput Screening (AID 1296008); also: % is scaled to controls: 0 for no effect and ±100 for the full control effect; nearly all actives have a fitted effect of over 60% in size
# TEST_PARAMETERS: Five cell lines viability, CellTiter-Glo ATP luminescence, 48-72 h; active compounds read low
Records with an inconclusive call do not appear.
MEASURED_PARAMETER: max response (%)
Please respond with the number in % and leave the unit unwritten.

MOLECULE	MEAS_VALUE
CC1(C)CC[C@]2(C(=O)O[C@@H]3O[C@H](CO)[C@@H](O)[C@H](O)[C@H]3O)CC[C@]3(C)C(=CCC4[C@@]5(C)C[C@@H](O)[C@H](O)[C@@](C)(CO)C5CC[C@]43C)C2[C@@H]1O (some centres not stated)	2.98

Now examine the next entry.
[in] Recorded max response for C[C@@H]1O[C@@H](O[C@@H]2[C@@H](O)[C@H](O[C@H]3CC[C@@]4(C)C(CC[C@]5(C)C4CC=C4[C@@H]6CC(C)(C)CC[C@]6(C(=O)O[C@@H]6O[C@H](CO)[C@@H](O)[C@H](O)[C@H]6O)CC[C@]45C)C3(C)C)O[C@H](C(=O)O)[C@H]2O)[C@H](O)[C@H](O)[C@H]1O (some centres not stated) , please?
[out] 4.82

---

# Tested on: C33A
# PROTOCOL_NOTES: Primary qHTS to identify gynecologic anti-cancer compounds using libraries of approved drugs and bioactive compounds (AID 1345084); also: % is scaled to controls: 0 for no effect and ±100 for the full control effect; nearly all actives have a fitted effect of over 55% in size
# TEST_PARAMETERS: Gynecologic cancer cell panel viability, ATPlite luminescence, 48 h; series mostly up to 57.5 µM
Records with an inconclusive call do not appear. Active and inactive are the calls of the source. Calls come from the whole dose curve; as a rule, active = well fitted cell-killing curve with a large enough effect; inconclusive = small, poorly fitted or top-dose-only effect, or effect the other way; inactive = flat fitted curve, though single readings scatter.
MEASURED_PARAMETER: activity change, negative = cytotoxicity

COMPOUND	activity change, negative = cytotoxicity
O=C(OCC1=CC(O)C2C=CO[C@@H](O[C@@H]3O[C@H](CO)[C@@H](O)[C@H](O)[C@H]3O)C12)c1ccccc1 (stereo partly drawn)	inactive
CC1(C(=O)O)CCCC2(C)C3=CCC4CC3(CCC12)CC4CO (stereo not drawn)	inactive
CCOc1cc(C(=O)N2CCC(N3CCN(C)CC3)CC2)ccc1Nc1ncc2c(n1)N(C1CCCC1)c1ccccc1C(=O)N2C	inactive
CC(=O)OC12COC1CC(O)C1(C)C(=O)C(O)C3=C(C)C(OC(=O)C(O)C(NC(=O)OC(C)(C)C)c4ccccc4)CC(O)(C(OC(=O)c4ccccc4)C21)C3(C)C (stereo not drawn)	inactive

[in] # lookup: activity change, negative = cytotoxicity of C=C1CCCC2(C)CC3(OC)OC(=O)C(C)=C3CC12 (stereo not drawn)
[out] inactive

[in] Looking for the measured activity change, negative = cytotoxicity of "CC[C@@](C)(Nc1ccnc(-c2c[nH]c3ncccc23)n1)C(=O)NCC(F)(F)F" , can you help?
[out] inactive

[in] Look up activity change, negative = cytotoxicity: O=C(CN1C(=O)C2(CCCC2)NCC1c1cc(F)cc(F)c1)Nc1ccc2c(c1)CC1(C2)C(=O)Nc2ncccc21 (stereo not drawn)
[out] inactive

[in] Returns the measured activity change, negative = cytotoxicity for the input compound. Input: "C/C=C/c1cc(OC)c2c(c1)[C@@H](C)[C@@H](c1ccc(O)c(OC)c1)O2"
[out] inactive

---

Documented Z-AUC across a set of molecules
# PROTOCOL_NOTES: qHTS drug screen for cell cycle checkpoint inhibitors in PARPi-resistant BRCA-mutant ovarian cancer cell lines. (AID 1963452)
# TEST_PARAMETERS: PEO1/OlaR viability, CellTiter-Glo luminescence, 96 h; active compounds read low
Number, no unit, nothing else.

Previously resolved entries follow.
MOLECULE	Z-AUC
Cc1ccc(-c2ccc3c(ccc4sc5c(c43)NC[C@@H](C)NC5=O)n2)cn1	-0.119
Cc1ccc(NC(=O)Nc2cc(C(F)(F)F)ccc2F)cc1Nc1ccc2c(c1)NC(=O)/C2=C\c1ccc[nH]1	0.377
Cn1cncc1C(N)(c1ccc(Cl)cc1)c1ccc2c(c1)c(-c1cccc(Cl)c1)cc(=O)n2C (stereo not given)	-1.06
C[C@@H]1CCN(C(=O)N2CCCC2)C[C@@H]1N(C)c1ncnc2[nH]ccc12	-0.093

Now consider a different molecule.
[in] Look at this molecule and give its reported Z-AUC. "CC[C@H](NC(=O)[C@H](CS(=O)(=O)CC1CC1)N[C@@H](c1ccc(F)cc1)C(F)(F)F)C(=O)C(=O)NC1CC1"
[out] 0.263
